# ASSAYED SYSTEM: human CB2 receptors (Homo sapiens)
# Construct: expressed in transfected cells; host or cells: CHO cells
# Sequence (P34972 whole entry): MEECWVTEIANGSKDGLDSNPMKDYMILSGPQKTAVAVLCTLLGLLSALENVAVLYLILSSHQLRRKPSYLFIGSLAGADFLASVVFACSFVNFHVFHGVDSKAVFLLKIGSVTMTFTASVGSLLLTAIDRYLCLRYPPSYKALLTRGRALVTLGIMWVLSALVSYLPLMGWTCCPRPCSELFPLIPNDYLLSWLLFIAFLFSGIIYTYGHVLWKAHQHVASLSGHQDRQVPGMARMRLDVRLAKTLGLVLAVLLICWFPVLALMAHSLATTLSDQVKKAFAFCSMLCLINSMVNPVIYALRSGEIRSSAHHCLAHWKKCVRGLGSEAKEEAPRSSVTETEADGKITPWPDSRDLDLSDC
# ASSAY: functional cAMP assay, CHO cells expressing human CB2
# Assay type: cell-based
pEC50: −log10 of the molar value.

# COMPOUND, pEC50
records = [
    ("CC(C)(C)c1nc(-c2ccc(C3CC3)c(OCC(F)F)c2)no1 [Example 24]", 7.81),
    ("Cc1nc([C@@](C)(CC2CC2)NC(=O)c2ccc(C3CC3)c(OCC(F)F)c2)no1 [Example 31]", 7.78),
    ("CNC(=O)[C@@H](NC(=O)c1ccc(C2CC2)c(OCC(F)(F)F)c1)C(C)(C)C [Example 41]", 8.00),
    ("C[C@@](CC(N)=O)(NC(=O)c1ccc(C2CC2)c(OCC(F)(F)F)c1)C1CC1 (single isomer, unassigned) [Example 35]", 8.07),
]
